src = ChEMBL document CHEMBL4715707

# protocol_notes: Apparent permeability across apical to basolateral side in MDCK cells
# Assay type: ADME, cell-based, Canis lupus familiaris
# condition: dog
value_kind: Papp A→B (×10⁻⁶ cm/s)
Give bare numbers, in ×10⁻⁶ cm/s.

For the compound "Cc1cc2cc(NC(=O)c3cccnc3N)ccc2[nH]1" , give its reported Papp A→B.
71

====

# study_target: UniProtKB P55072
# Sequence (P55072 whole entry, the tested form may be a part): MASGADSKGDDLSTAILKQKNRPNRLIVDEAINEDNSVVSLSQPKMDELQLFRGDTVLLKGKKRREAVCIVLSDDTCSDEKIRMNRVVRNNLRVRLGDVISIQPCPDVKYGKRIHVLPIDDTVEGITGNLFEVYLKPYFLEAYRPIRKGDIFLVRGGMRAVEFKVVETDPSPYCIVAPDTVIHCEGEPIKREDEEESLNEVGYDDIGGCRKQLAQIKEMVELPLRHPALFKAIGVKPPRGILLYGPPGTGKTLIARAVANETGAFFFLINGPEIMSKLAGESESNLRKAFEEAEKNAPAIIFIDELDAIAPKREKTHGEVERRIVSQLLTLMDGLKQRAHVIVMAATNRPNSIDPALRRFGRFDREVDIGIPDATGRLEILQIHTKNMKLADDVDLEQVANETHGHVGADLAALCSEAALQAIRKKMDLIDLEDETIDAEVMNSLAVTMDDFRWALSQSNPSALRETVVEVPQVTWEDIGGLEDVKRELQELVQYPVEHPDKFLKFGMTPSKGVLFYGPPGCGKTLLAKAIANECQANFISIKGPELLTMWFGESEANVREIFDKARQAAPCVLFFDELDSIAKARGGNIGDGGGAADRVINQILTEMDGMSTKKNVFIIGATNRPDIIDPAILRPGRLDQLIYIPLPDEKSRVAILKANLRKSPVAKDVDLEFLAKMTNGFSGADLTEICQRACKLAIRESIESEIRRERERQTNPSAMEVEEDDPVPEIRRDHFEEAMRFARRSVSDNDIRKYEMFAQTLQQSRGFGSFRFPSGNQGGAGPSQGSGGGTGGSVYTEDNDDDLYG
# protocol_notes: Uncompetitive inhibition of recombinant human full length Avi-tagged p97 (1 to 806 residues) expressed in Escherichia coli Rosetta 2(DE3) using 20 uM ATP as substrate incubated for 90 mins by ADP-glo assay based Michaelis-Menten plot analysis
value_kind: pKi
Give bare numbers, as −log10 of the molar value.

For the compound "Cc1cc2cc(NC(=O)c3cccnc3N)ccc2[nH]1" , give its reported pKi.
6.13
